Ref: paper PMC2206373

system: T cell hybridoma 5G11; test: T hybridoma 5G11 IL-2 response; format: cell-based, mouse; conditions: Figure 1; IL-2 production, DRB1*0401 BLCL as APC; duplicate or triplicate; background 29,203 counts; ±30% of WT response = super/partial agonist
Non-standard residues stand in square brackets, D forms with d. Residues, ends and D or L forms follow the SMILES beside them. Phe(4-Cl) = N[C@@H](Cc1ccc(Cl)cc1)C(=O)O; Tic = O=C(O)[C@@H]1Cc2ccccc2CN1; 2Thi = N[C@@H](Cc1cccs1)C(=O)O
Measured Parameter: T hybridoma (SI) 5G11

| Compound | Measured Result |
| --- | --- |
| CC(C)C[C@H](NC(=O)[C@@H](NC(=O)[C@H](Cc1ccc(Cl)cc1)NC(=O)[C@H](CO)NC(=O)[C@@H](N)CCCNC(=N)N)[C@@H](C)O)C(=O)N[C@@H](C)C(=O)N[C@@H](CO)C(=O)N[C@@H](CO)C(=O)N[C@@H](CCC(=O)O)C(=O)N[C@H](C(=O)NCC(=O)N[C@H](C(=O)NCC(=O)O)C(C)C)[C@@H](C)O [Compound 31] (H-RS[Phe(4-Cl)]TLASSETGVG-OH) | 32 SI |
| CC(C)C[C@H](NC(=O)[C@@H](NC(=O)[C@@H]1Cc2ccccc2CN1C(=O)[C@H](CO)NC(=O)[C@@H](N)CCCNC(=N)N)[C@@H](C)O)C(=O)N[C@@H](C)C(=O)N[C@@H](CO)C(=O)N[C@@H](CO)C(=O)N[C@@H](CCC(=O)O)C(=O)N[C@H](C(=O)NCC(=O)N[C@H](C(=O)NCC(=O)O)C(C)C)[C@@H](C)O [Compound 27] (H-RS[Tic]TLASSETGVG-OH) | 12 SI |
| CC(C)C[C@H](NC(=O)[C@@H](NC(=O)[C@H](Cc1cccs1)NC(=O)[C@H](CO)NC(=O)[C@@H](N)CCCNC(=N)N)[C@@H](C)O)C(=O)N[C@@H](C)C(=O)N[C@@H](CO)C(=O)N[C@@H](CO)C(=O)N[C@@H](CCC(=O)O)C(=O)N[C@H](C(=O)NCC(=O)N[C@H](C(=O)NCC(=O)O)C(C)C)[C@@H](C)O [Compound 26] (H-RS[2Thi]TLASSETGVG-OH) | 23 SI |

###

molecular target: HLA-DR4(B1*0401) (Homo sapiens, UniProt P01903+P01911, A100K/A169T/F76Y/I96L/K127E/L162R/M171V/N62H/P40V/Q125Y/R42H/S133A/S149N/S66Y/V115G/V209L/W38E); experiment: HLA-DR4 competition peptide binding assay; settings: Table 1; competition with biotinylated HA307-319 (Y309F) 50 nM, purified HLA-DR4 30 nM, pH 5, 48 h, room temperature; geometric mean of two experiments; read-out: HLA-DR binding IC50
pIC50: −log10 of the molar value. No end group written: not given here.

| Sequence Entry | Limit Qualifier | pIC50 |
| --- | --- | --- |
| RSFTLASSETGV [Compound 2] | = | 7.05 |
| SFTLASSETGVG [Compound 5] | = | 7.05 |
| RSFTLASSETG [Compound 3] | = | 6.70 |
| LASSETGVG [Compound 8] | < | 4.00 |
| TLASSETGVG [Compound 7] | < | 4.00 |
| SFTLASSETGV [Compound 9] | = | 6.92 |
| RSFTLASSET [Compound 4] | = | 5.15 |
| RSFTLASSETGVG [Compound 1, HC gp-39(263–275)] | = | 6.92 |
| FTLASSETGVG [Compound 6] | = | 6.96 |

###

test system: T cell hybridoma 8B12; experiment: T hybridoma 8B12 IL-2 response; type: cell-based, mouse; conditions: Figure 1; IL-2 production, DRB1*0401 BLCL as APC; duplicate or triplicate; background 16,288 counts; ±30% of WT response = super/partial agonist
Non-standard residues stand in square brackets, D forms with d. Residues, ends and D or L forms follow the SMILES beside them. *: point of attachment. Phe(4-NO2) = N[C@@H](Cc1ccc([N+](=O)[O-])cc1)C(=O)O; Phe(4-Cl) = N[C@@H](Cc1ccc(Cl)cc1)C(=O)O; Dip = N[C@H](C(=O)O)C(c1ccccc1)c1ccccc1; Phe(4-F) = N[C@@H](Cc1ccc(F)cc1)C(=O)O; 3Pal = N[C@@H](Cc1cccnc1)C(=O)O; Tic = O=C(O)[C@@H]1Cc2ccccc2CN1; 2Thi = N[C@@H](Cc1cccs1)C(=O)O; Cha = N[C@@H](CC1CCCCC1)C(=O)O; Bn = c1ccc(C*)cc1
Below is a list of entries, each paired with its recorded T hybridoma (SI) 8B12 value.

| Molecule | Study Target | T hybridoma (SI) 8B12 |
| --- | --- | --- |
| CC(C)C[C@H](NC(=O)[C@@H](NC(=O)[C@H](Cc1ccc([N+](=O)[O-])cc1)NC(=O)[C@H](CO)NC(=O)[C@@H](N)CCCNC(=N)N)[C@@H](C)O)C(=O)N[C@@H](C)C(=O)N[C@@H](CO)C(=O)N[C@@H](CO)C(=O)N[C@@H](CCC(=O)O)C(=O)N[C@H](C(=O)NCC(=O)N[C@H](C(=O)NCC(=O)O)C(C)C)[C@@H](C)O [Compound 34] (H-RS[Phe(4-NO2)]TLASSETGVG-OH) | T cell hybridoma 8B12 | 20 |
| CC(C)C[C@H](NC(=O)[C@@H](NC(=O)[C@H](Cc1cccnc1)NC(=O)[C@H](CO)NC(=O)[C@@H](N)CCCNC(=N)N)[C@@H](C)O)C(=O)N[C@@H](C)C(=O)N[C@@H](CO)C(=O)N[C@@H](CO)C(=O)N[C@@H](CCC(=O)O)C(=O)N[C@H](C(=O)NCC(=O)N[C@H](C(=O)NCC(=O)O)C(C)C)[C@@H](C)O [Compound 29] (H-RS[3Pal]TLASSETGVG-OH) | T cell hybridoma 8B12 | 19 |
| CC(C)C[C@H](NC(=O)[C@@H](NC(=O)[C@H](COCc1ccccc1)NC(=O)[C@H](CO)NC(=O)[C@@H](N)CCCNC(=N)N)[C@@H](C)O)C(=O)N[C@@H](C)C(=O)N[C@@H](CO)C(=O)N[C@@H](CO)C(=O)N[C@@H](CCC(=O)O)C(=O)N[C@H](C(=O)NCC(=O)N[C@H](C(=O)NCC(=O)O)C(C)C)[C@@H](C)O [Compound 35] (H-RSS(Bn)TLASSETGVG-OH) | T cell hybridoma 8B12 | 20 |
| CC(C)C[C@H](NC(=O)[C@@H](NC(=O)[C@H](Cc1cccs1)NC(=O)[C@H](CO)NC(=O)[C@@H](N)CCCNC(=N)N)[C@@H](C)O)C(=O)N[C@@H](C)C(=O)N[C@@H](CO)C(=O)N[C@@H](CO)C(=O)N[C@@H](CCC(=O)O)C(=O)N[C@H](C(=O)NCC(=O)N[C@H](C(=O)NCC(=O)O)C(C)C)[C@@H](C)O [Compound 26] (H-RS[2Thi]TLASSETGVG-OH) | T cell hybridoma 8B12 | 18 |
| CC(C)C[C@H](NC(=O)[C@@H](NC(=O)[C@@H]1Cc2ccccc2CN1C(=O)[C@H](CO)NC(=O)[C@@H](N)CCCNC(=N)N)[C@@H](C)O)C(=O)N[C@@H](C)C(=O)N[C@@H](CO)C(=O)N[C@@H](CO)C(=O)N[C@@H](CCC(=O)O)C(=O)N[C@H](C(=O)NCC(=O)N[C@H](C(=O)NCC(=O)O)C(C)C)[C@@H](C)O [Compound 27] (H-RS[Tic]TLASSETGVG-OH) | T cell hybridoma 8B12 | 8 |
| CC(C)C[C@H](NC(=O)[C@@H](NC(=O)[C@H](Cc1ccc(F)cc1)NC(=O)[C@H](CO)NC(=O)[C@@H](N)CCCNC(=N)N)[C@@H](C)O)C(=O)N[C@@H](C)C(=O)N[C@@H](CO)C(=O)N[C@@H](CO)C(=O)N[C@@H](CCC(=O)O)C(=O)N[C@H](C(=O)NCC(=O)N[C@H](C(=O)NCC(=O)O)C(C)C)[C@@H](C)O [Compound 30] (H-RS[Phe(4-F)]TLASSETGVG-OH) | T cell hybridoma 8B12 | 17 |
| CC(C)C[C@H](NC(=O)[C@@H](NC(=O)[C@H](CC1CCCCC1)NC(=O)[C@H](CO)NC(=O)[C@@H](N)CCCNC(=N)N)[C@@H](C)O)C(=O)N[C@@H](C)C(=O)N[C@@H](CO)C(=O)N[C@@H](CO)C(=O)N[C@@H](CCC(=O)O)C(=O)N[C@H](C(=O)NCC(=O)N[C@H](C(=O)NCC(=O)O)C(C)C)[C@@H](C)O [Compound 25] (H-RS[Cha]TLASSETGVG-OH) | T cell hybridoma 8B12 | 18 |
| CC(C)C[C@H](NC(=O)[C@@H](NC(=O)[C@@H](NC(=O)[C@H](CO)NC(=O)[C@@H](N)CCCNC(=N)N)C(c1ccccc1)c1ccccc1)[C@@H](C)O)C(=O)N[C@@H](C)C(=O)N[C@@H](CO)C(=O)N[C@@H](CO)C(=O)N[C@@H](CCC(=O)O)C(=O)N[C@H](C(=O)NCC(=O)N[C@H](C(=O)NCC(=O)O)C(C)C)[C@@H](C)O [Compound 28] (H-RS[Dip]TLASSETGVG-OH) | T cell hybridoma 8B12 | 5 |
| CC(C)C[C@H](NC(=O)[C@@H](NC(=O)[C@H](Cc1ccc(Cl)cc1)NC(=O)[C@H](CO)NC(=O)[C@@H](N)CCCNC(=N)N)[C@@H](C)O)C(=O)N[C@@H](C)C(=O)N[C@@H](CO)C(=O)N[C@@H](CO)C(=O)N[C@@H](CCC(=O)O)C(=O)N[C@H](C(=O)NCC(=O)N[C@H](C(=O)NCC(=O)O)C(C)C)[C@@H](C)O [Compound 31] (H-RS[Phe(4-Cl)]TLASSETGVG-OH) | T cell hybridoma 8B12 | 14 |
